# Test system: 777334-354-R2-J4-PDC tumor spheroids with HUVEC/MSC, viability;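 note: spheroids exposed to compounds for 7 days before readout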
# Assay Info: Anticancer human tumor 777334-354-R2-J4-PDC patient-derived pancreatic adenocarcinoma cell line growth inhibition [GQUAD]
# Condition: second compound 1 µM; first compound 0.1 µM; active compounds read low
Reported viability, T/C by item:
Write the number in % without appending the unit.

Sample records with viability, T/C:
COc1ccc([C@@H](O)c2cc(-c3ncnc4cc(N5CCOCC5)ccc34)c(F)cc2Cl)nn1 + CN(C)c1ccc(Nc2c3ccc(NC(=O)CCN4CCCC4)cc3nc3cc(NC(=O)CCN4CCCC4)ccc23)cc1 ... 86.4
CC(=O)O[C@H]1C(=O)[C@@]2(C)[C@H]([C@H](OC(=O)c3ccccc3)[C@]3(O)C[C@H](OC(=O)[C@H](O)[C@@H](NC(=O)c4ccccc4)c4ccccc4)C(C)=C1C3(C)C)[C@]1(OC(C)=O)CO[C@@H]1C[C@@H]2O + CN(C)c1ccc(Nc2c3ccc(NC(=O)CCN4CCCC4)cc3nc3cc(NC(=O)CCN4CCCC4)ccc23)cc1 ... 50.6

Q) Using the record for CC1COCCN1c1cc(C2(S(C)(=N)=O)CC2)nc(-c2ccnc3[nH]ccc23)n1 (stereo not given) + Cc1[nH]c2ccc(F)cc2c1-c1nc2c3cccnc3c3ncccc3c2[nH]1 , state its measured viability, T/C.
A) 93.8

Q) Please look at this compound and report its viability, T/C: COc1ccc([C@@H](O)c2cc(-c3ncnc4cc(N5CCOCC5)ccc34)c(F)cc2Cl)nn1 + Cc1[nH]c2ccc(F)cc2c1-c1nc2c3cccnc3c3ncccc3c2[nH]1
A) 89.9

Q) Identify the reported viability, T/C for the following entry. CCCS(=O)(=O)Nc1ccc(F)c(C(=O)c2c[nH]c3ncc(-c4ccc(Cl)cc4)cc23)c1F + CN(C)c1ccc(Nc2c3ccc(NC(=O)CCN4CCCC4)cc3nc3cc(NC(=O)CCN4CCCC4)ccc23)cc1
A) 98.6
